Measurement target: T1, human Angiotensin II Receptor Type 1 (AT1R) (human, UniProt P30556 1-359)
T1 construct: whole, on cells; also endogenous on human cardiac fibroblasts (functional entry); also called AT1 receptor
T1 sequence (looked up): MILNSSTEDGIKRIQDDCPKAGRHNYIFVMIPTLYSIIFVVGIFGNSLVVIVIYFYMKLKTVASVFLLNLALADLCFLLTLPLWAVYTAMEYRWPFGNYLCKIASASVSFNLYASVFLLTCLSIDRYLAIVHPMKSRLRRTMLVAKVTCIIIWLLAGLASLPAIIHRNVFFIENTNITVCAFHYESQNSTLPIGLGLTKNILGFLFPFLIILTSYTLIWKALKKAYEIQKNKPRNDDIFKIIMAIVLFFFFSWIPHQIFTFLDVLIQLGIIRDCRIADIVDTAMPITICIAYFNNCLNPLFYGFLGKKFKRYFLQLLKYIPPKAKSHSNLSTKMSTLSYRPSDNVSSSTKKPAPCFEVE
Protocol text: competition radioligand binding on HEK-293 cells with AT1R; competitor [125I]-Sar1Ile8Ang II
Square brackets hold non-standard residues; d marks the D form. Ends that are not written are not given here. βVal = β-valine (β-amino acid form of Val)
Measured endpoint: IC50
I'd appreciate it if you wrote the number followed by its unit.

### Prompt Note down IC50 recorded for R[βVal]YIHPW (synthetic peptide; also called Arg-β-Val-Tyr-Ile-His-Pro-Trp) [βVal-Trp-8-Ang III]
### Response 1210 nM
